B1: library; a variant is named by its letters at N, in order (parent)
chain: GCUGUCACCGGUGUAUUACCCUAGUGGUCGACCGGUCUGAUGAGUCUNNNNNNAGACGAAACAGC

Variants of: B1
PROCEDURE TEXT: normalized RNA/DNA level with ligand (relative to sTRSVctl = 100) (log10 (% of sTRSVctl)); ligand: hypoxanthine (xanthine aptamer); higher = less ribozyme self-cleavage, higher mRNA level
TEST CONTEXT: ligand concentration (+) RNA-Seq: 5 mM, HEK293T, reporter: mCherry (pCS4076), ligand present: yes
TEST READOUT: normalized RNA/DNA level with ligand (log10)

CCAUAG | 1.89
CCGGGU | 2.04
GUAUUG | 1.88
CGAGGC | 1.97
GGCGGA | 1.98
UCAGUU | 1.96
GGCAUU | 1.96
AUAUUG | 1.87
AACUCU | 1.9
UGUCUG | 1.93
CUCGGA | 1.99
